target: ZapC (untagged) (E. coli, UniProt P75862 1-180); experiment: BLI
measured.property: Kd (µM)
Answer with a number only, understood to be in µM.

Query :: Return reported Kd. Input binder: SUMO-FtsZ^316-383 (domain or fragment) GMDKRPEITLVTNKQVQQPVMDRYQQHGMAPLTQEQKPVAKVVNDNAPQTAKEPDYLDIPAFLRKQAD
Result :: 10
